Test system: L929 cells
Test: L929 cell necroptosis assay (TNFa + zVAD, CellTiter-Glo)
Format: cell-based, murine
Settings: Mus musculus, L929, L929 cells, TNFa + zVAD; read-out: L929-CTG-recovery, L929, TNFa + zVAD (IC50)
measurement_type: log10 of IC50 (log10 of the value in nM)

• CN1C(=O)[C@@H](NC(=O)c2ncn(Cc3ccccc3)n2)COc2ccc(C#CCCOc3ccc4ncccc4c3)cc21 = -0.70
• CN1C(=O)[C@@H](NC(=O)c2cc(Oc3ccccc3F)ccn2)COc2ccc(C#CC3(O)COC3)cc21 = 1.15
• CN1C(=O)[C@@H](NC(=O)c2cc(Oc3ccccc3)ccn2)COc2ccc(C#CCN3CCCC3)cc21 = 2.13
• CN1C(=O)[C@@H](NC(=O)c2cc(Oc3cccc(F)c3)ccn2)COc2ccc(C#CC3(O)COC3)cc21 = 1.69
• CN1C(=O)[C@@H](NC(=O)c2ncn(Cc3ccccc3)n2)COc2cc(C#CC(C)(C)O)ccc21 = -0.15
• CN1C(=O)[C@@H](NC(=O)c2n[nH]c(Cc3ccccc3)n2)COc2ccc(C#CCCOc3ccc4ncccc4c3)cc21 = -0.30
• CN1C(=O)[C@@H](NC(=O)c2cc(Oc3ccccc3)ccn2)COc2ccc(C#CC3(O)CNC3)cc21 = 3.70
• CN1C(=O)[C@@H](NC(=O)c2cc(Oc3ccccc3)ccn2)COc2ccc(C#CC(C)(C)COC(=O)CCC(=O)O)cc21 = 2.19
• CN1C(=O)[C@@H](NC(=O)c2n[nH]c(Cc3ccccc3)n2)COc2ccc(C#CC3(O)COC3)cc21 = -0.05
• CN1C(=O)[C@@H](NC(=O)c2n[nH]c(Cc3ccccc3)n2)COc2ccc(C#CCCOc3cccc4ncccc34)cc21 = -0.52
• CN1C(=O)[C@@H](NC(=O)c2ncn(Cc3ccccc3)n2)COc2ccc(C#CCCOc3cccc4ncccc34)cc21 = -0.70
• CN1C(=O)[C@@H](NC(=O)c2cc(Oc3ccc(F)cc3)ccn2)COc2ccc(C#CC(C)(C)COC(=O)CCC(=O)O)cc21 = 3.26
• [2H]C([2H])([2H])C(O)(C#Cc1ccc2c(c1)N(C)C(=O)[C@@H](NC(=O)c1cc(Oc3ccccc3)ccn1)CO2)C([2H])([2H])[2H] = -0.52
• CN1C(=O)[C@@H](NC(=O)c2n[nH]c(Cc3ccccc3)n2)COc2ccc(CN3CCN(c4ccncc4)CC3)cc21 = 4.73
• CC(=O)N1CC(F)(C#Cc2ccc3c(c2)N(C)C(=O)[C@@H](NC(=O)c2cc(Oc4ccccc4)ccn2)CO3)C1 = 1.33
• CN1C(=O)[C@@H](NC(=O)c2cc(Oc3ccccc3)ccn2)COc2ccc(C#CC3CCCN3)cc21 (stereo partly drawn) = 3.13
• CN1C(=O)[C@@H](NC(=O)c2n[nH]c(Cc3ccccc3)n2)COc2cc(CN3CCn4nc(C(F)(F)F)nc4C3)ccc21 = 1.98
• CN1C(=O)[C@@H](NC(=O)c2cc(Oc3ccccc3)ccn2)COc2ccc(C#CC3(O)CCNCC3)cc21 = 3.66
